# tgt: ATR/ATRIP (Homo sapiens (Human))
# Sequence (Q13535 whole entry): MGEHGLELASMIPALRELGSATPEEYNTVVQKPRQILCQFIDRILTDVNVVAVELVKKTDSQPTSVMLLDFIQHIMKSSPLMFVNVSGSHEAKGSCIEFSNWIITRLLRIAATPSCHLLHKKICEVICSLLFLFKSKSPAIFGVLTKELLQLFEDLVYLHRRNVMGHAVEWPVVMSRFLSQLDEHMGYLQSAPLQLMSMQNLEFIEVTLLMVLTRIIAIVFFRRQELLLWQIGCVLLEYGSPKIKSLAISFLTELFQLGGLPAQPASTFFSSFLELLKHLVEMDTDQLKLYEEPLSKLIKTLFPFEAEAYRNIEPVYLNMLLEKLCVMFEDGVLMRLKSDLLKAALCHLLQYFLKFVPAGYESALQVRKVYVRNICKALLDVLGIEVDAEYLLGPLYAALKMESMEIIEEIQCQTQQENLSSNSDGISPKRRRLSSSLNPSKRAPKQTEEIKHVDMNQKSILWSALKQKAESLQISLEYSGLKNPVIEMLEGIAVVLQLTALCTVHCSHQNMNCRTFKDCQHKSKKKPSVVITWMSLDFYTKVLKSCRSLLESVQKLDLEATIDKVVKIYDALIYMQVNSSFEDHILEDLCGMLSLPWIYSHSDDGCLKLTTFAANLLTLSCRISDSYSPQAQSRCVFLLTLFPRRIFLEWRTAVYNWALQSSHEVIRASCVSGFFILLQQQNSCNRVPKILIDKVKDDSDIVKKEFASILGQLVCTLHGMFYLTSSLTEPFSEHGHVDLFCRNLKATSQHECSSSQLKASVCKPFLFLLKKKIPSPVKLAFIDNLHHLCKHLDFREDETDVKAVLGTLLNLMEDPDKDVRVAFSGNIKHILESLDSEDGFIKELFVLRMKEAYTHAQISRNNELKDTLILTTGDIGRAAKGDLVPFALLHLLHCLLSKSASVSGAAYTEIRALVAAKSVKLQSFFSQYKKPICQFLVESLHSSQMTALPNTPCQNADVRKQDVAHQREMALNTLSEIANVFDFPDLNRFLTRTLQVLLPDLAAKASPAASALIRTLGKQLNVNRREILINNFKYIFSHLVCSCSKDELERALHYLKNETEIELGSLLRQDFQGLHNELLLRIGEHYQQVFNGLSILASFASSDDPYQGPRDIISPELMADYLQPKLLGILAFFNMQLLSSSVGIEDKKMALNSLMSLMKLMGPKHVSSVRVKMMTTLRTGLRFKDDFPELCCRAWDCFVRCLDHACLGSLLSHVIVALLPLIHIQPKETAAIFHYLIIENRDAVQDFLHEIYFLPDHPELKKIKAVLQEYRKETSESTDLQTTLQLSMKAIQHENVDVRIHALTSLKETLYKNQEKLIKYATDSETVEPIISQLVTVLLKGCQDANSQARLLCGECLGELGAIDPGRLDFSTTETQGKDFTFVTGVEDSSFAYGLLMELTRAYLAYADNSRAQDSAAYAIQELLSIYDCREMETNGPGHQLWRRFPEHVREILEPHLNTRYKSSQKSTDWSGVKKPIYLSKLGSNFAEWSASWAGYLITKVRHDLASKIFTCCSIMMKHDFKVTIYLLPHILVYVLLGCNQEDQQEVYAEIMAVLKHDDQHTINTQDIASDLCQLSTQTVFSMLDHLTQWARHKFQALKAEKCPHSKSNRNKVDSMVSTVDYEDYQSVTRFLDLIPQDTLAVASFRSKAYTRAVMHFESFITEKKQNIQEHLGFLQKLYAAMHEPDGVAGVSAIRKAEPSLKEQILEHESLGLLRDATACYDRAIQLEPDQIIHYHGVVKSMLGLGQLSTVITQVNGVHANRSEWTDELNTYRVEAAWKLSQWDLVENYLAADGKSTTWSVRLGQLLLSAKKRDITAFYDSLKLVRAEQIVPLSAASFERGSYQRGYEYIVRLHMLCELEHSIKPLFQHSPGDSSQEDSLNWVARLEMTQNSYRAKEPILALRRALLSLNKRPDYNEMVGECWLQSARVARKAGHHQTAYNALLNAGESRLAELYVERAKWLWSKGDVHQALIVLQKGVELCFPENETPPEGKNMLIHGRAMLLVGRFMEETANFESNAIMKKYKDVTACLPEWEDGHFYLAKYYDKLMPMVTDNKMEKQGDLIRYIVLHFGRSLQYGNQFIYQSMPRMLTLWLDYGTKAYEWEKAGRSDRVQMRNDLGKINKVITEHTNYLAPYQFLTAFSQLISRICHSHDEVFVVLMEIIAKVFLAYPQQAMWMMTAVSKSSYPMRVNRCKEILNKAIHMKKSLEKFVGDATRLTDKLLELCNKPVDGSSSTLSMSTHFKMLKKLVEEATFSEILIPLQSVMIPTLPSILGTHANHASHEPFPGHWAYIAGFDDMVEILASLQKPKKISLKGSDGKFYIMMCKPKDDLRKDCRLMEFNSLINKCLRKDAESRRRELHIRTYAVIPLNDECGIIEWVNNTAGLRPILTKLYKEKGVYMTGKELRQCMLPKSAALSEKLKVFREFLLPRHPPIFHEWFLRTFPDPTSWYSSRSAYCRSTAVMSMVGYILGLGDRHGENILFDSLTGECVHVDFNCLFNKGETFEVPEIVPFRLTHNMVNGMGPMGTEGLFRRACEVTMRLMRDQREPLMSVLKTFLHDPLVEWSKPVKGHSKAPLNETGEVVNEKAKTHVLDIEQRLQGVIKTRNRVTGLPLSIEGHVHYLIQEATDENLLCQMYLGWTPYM
# Sequence (Q8WXE1 whole entry partner): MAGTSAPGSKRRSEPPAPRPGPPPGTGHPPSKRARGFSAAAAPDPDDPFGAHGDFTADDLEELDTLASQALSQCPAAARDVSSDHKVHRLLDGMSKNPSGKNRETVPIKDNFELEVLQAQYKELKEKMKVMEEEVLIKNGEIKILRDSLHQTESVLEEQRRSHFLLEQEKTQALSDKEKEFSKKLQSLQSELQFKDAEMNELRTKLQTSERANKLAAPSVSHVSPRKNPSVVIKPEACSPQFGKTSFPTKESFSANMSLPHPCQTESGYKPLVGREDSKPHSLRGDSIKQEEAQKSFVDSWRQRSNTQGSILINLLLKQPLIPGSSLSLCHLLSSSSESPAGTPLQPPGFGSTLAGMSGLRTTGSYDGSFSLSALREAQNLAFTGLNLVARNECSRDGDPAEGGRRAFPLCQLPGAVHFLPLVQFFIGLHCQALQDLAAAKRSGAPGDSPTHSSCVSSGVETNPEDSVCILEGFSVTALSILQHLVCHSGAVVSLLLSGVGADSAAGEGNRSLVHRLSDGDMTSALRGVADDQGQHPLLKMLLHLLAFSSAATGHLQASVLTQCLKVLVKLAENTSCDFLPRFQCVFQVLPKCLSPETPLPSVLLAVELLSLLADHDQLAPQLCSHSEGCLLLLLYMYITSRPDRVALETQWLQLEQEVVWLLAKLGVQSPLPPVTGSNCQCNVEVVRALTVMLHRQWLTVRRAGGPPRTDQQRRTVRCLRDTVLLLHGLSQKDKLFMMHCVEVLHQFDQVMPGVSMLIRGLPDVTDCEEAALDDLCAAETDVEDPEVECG
# assay-method-text: ATR/ATRIP enzymatic assay (AlphaScreen, phosphorylation of p53)
assay-endpoint: pIC50
Remember, pIC50 is on a log scale: it is -log10 of the molar concentration.

Which pIC50 value is on record for `C[C@@H]1COCCN1c1cc(C(C)(C)C#N)c2cnn(Cc3ccn[nH]3)c2n1` ? 6.35

----------
# maps each entry to its IC50
# tgt: ATR/ATRIP (Homo sapiens (Human))
# assay-method-text: ATR/ATRIP enzymatic assay (AlphaScreen, phosphorylation of p53)
# run-conditions: read-out: ATR IC50; recombinant ATR/ATRIP 0.63 nM, 25 nM GST-p53, 3 μM ATP, 1 hour room temperature
Express the result in nM but write the number alone.

{"columns": ["molecule", "assay-endpoint", "value-units", "value-reported"],
 "data": [
  ["C[C@@H]1COCCN1c1cc(C(C)(C)O)c2cnn(-c3ccccn3)c2n1 [Compound 63]", "IC50", "nM", 11],
  ["C[C@@H]1COCCN1c1cc(N(C)S(C)(=O)=O)c2cnn(-c3cc[nH]n3)c2n1 [Compound 52]", "IC50", "nM", 8],
  ["C[C@@H]1COCCN1c1cc(C2(C#N)CCN(C(=O)OC(C)(C)C)CC2)c2cnn(-c3cc[nH]n3)c2n1 [Compound 81]", "IC50", "nM", 8],
  ["C[C@@H]1COCCN1c1cc(C2(C(N)=O)CCCCC2)c2cnn(-c3cc[nH]n3)c2n1 [Compound 77]", "IC50", "nM", 5],
  ["C[C@@H]1COCCN1c1cc(-c2cccc(S(C)(=O)=O)c2)c2cnn(-c3ccn[nH]3)c2n1 [Compound 92]", "IC50", "nM", 8]
]}

Please state recorded IC50 (tested on ATR/ATRIP (Homo sapiens (Human))) of C[C@@H]1COCCN1c1cc(C(C)(C)C#N)c2ccn(-c3cc[nH]n3)c2n1 [Compound 11] 101

Now the same for C[C@@H]1COCCN1c1cc(I)c2cnn(-c3ccn[nH]3)c2n1 [Compound 42] 32

Now the same for C[C@@H]1COCCN1c1cc(-c2ccncn2)c2ccn(-c3cc[nH]n3)c2n1 [Compound 13] 1650

Now the same for C[C@@H]1COCCN1c1nc2c(cnn2-c2cc[nH]n2)c(C(C)(C)C#N)c1Cl [Compound 69] 554

Now the same for COc1ccc(-c2cc(N3CCOC[C@H]3C)nc3c2c(C)cn3-c2cc[nH]n2)cn1 [Compound 21] 828

Now the same for C[C@@H]1COCCN1c1cc(-c2ccc(S(C)(=O)=O)cc2)c2cnn(-c3ccn[nH]3)c2n1 [Compound 89] 31

Now the same for C[C@@H]1COCCN1c1cc(C(N)=O)c2cnn(-c3cc[nH]n3)c2n1 [Compound 23] 264

Now the same for C[C@@H]1COCCN1c1cc(C2(C#N)CCNC2)c2cnn(-c3cc[nH]n3)c2n1 (stereo partly drawn) [Compound 84] 9

Now the same for Cc1ccc(-c2cc(N3CCOC[C@H]3C)nc3c2ccn3-c2cc[nH]n2)nn1 [Compound 14] 1150

Now the same for C[C@@H]1COCCN1c1cc(-c2ccccc2F)c2cnn(-c3ccn[nH]3)c2n1 [Compound 48] 5

Now the same for C[C@@H]1COCCN1c1cc(C2(C#N)CCCC2)c2cnn(-c3cc[nH]n3)c2n1 [Compound 28] 4

Now the same for C[C@@H]1COCCN1c1cc(C2(C#N)CCOCC2)c2cnn(-c3cc[nH]n3)c2n1 [Compound 73] 3

Now the same for C[C@@H]1COCCN1c1cc(C2(C#N)CCCCC2)c2cnn(-c3cc[nH]n3)c2n1 [Compound 5] 3

Now the same for C[C@@H]1COCCN1c1cc(S(=O)(=O)c2ccccc2)c2cnn(-c3cc[nH]n3)c2n1 [Compound 50] 116

Now the same for C[C@@H]1COCCN1c1cc(C2(C#N)CC2)c2ccn(-c3cc[nH]n3)c2n1 [Compound 29] 580

Now the same for C[C@@H]1COCCN1c1cc(C(=O)N(C)Cc2ccccc2)c2ccn(-c3cc[nH]n3)c2n1 [Compound 19] 540
